Measured values drawn from patent US20250188040A1 for this set.

Test system: HCT 116 cells
Test: Cell growth assay (CellTiter-Glo 2.0), HCT 116 MSI-H cell line
Conditions: Homo sapiens, HCT-116, 120 h, read-out: Cell Growth Inhibition GI50 HCT-116
Hi there, I'd appreciate the recorded log10(GI50) for every entry that follows.
On a log10 scale: recorded GI50, unit nM.

Below, each entry is followed by its recorded log10(GI50) result.
> print(dat)
                                   molecule  test.result
1  CC(C)=Cc1ncc(C(=O)N[C@@H](C)/C=C/S(C)(=O)=O)c(Oc2ccccc2)n1         3.33
2  CS(=O)(=O)/C=C/[C@@H](NC(=O)c1cnc(C(F)C2CC2)nc1Oc1ccccc1)C1CC1 (stereo partly shown)         1.56
3  Cn1ncc2cc(C(=O)N[C@H](/C=C/S(C)(=O)=O)C3CC3)c(Oc3ccccc3)nc21         3.32

Dear colleague, could you send me log10(GI50) for each of the items below? Thanks.
1. C[C@@H]1CC[C@H](c2ncc(C(=O)N[C@@H](C)/C=C/S(C)(=O)=O)c(Oc3ccccc3)n2)C1 (racemic)
2. CS(=O)(=O)/C=C/[C@@H](NC(=O)c1cc(F)c(C(F)(F)C2CC2)nc1Oc1ccccc1)C1CC1
3. CC(C)[C@@H](/C=C/S(C)(=O)=O)NC(=O)c1cnc(C2CCCC2)nc1Oc1ccccc1

# output
1: 3.15; 2: 1.08; 3: 3.06

# input Report log10(GI50) for `CS(=O)(=O)/C=C/[C@@H](NC(=O)c1cnc(C2CC2)nc1Oc1ccccc1)C1CC(F)(F)C1` tested on HCT 116 cells.
# output 2.08
